Source of measurements: patent US6664273B2

These compounds were tested on MCH receptor (Homo sapiens); pKi is the recorded read-out.
Sequence (Q99705 whole entry): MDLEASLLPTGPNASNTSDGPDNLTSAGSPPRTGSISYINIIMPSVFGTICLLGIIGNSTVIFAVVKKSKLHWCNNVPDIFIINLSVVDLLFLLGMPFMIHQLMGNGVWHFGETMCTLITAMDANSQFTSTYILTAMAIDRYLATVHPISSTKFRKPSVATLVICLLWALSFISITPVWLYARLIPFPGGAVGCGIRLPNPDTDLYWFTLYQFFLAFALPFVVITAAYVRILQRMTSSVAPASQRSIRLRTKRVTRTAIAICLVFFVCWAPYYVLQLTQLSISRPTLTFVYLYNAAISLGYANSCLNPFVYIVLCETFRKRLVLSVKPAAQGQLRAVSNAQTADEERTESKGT
pKi: −log10 of the molar value.
MEASURED_METRIC: pKi

COMPOUND | NUMBER
N#Cc1cccc(-c2ccc(C3(CCC(=O)Nc4cccc(OC(F)(F)F)c4)CCN(CC4CC4)CC3)cc2)c1 | 7.16
CN(CC(=O)Nc1ccc(F)c(C(F)(F)F)c1)C1(c2ccc(-c3cccc(C#N)c3)cc2)CCN(C2CCCC2)CC1 | 7.74
CN(CC(=O)Nc1ccc(F)c(Cl)c1)C1(c2ccc(-c3cccc(C#N)c3)cc2)CCN(CCO)CC1 | 8.00
N#Cc1cccc(-c2ccc(C3(OCC(=O)Nc4cc(Cl)cc(Cl)c4)CCN(C4CCSC4)CC3)cc2)c1 (stereo not shown) | 7.72
CC(C)C1CCC(N2CCC(OCC(=O)Nc3cc(Cl)cc(Cl)c3)(c3ccc(-c4cccc(C#N)c4)cc3)CC2)CC1 (stereo not shown) | 7.72
CC1CCC(N2CCC(OCC(=O)Nc3cc(Cl)cc(Cl)c3)(c3ccc(-c4cccc(C#N)c4)cc3)CC2)C1 (stereo not shown) | 7.96
N#Cc1cccc(-c2ccc(C3(CCC(=O)Nc4ccc(F)c(Cl)c4)CCN(C4CCCC4)CC3)cc2)c1 | 7.59
N#Cc1cccc(-c2ccc(C3(CCC(=O)Nc4cc(F)cc(F)c4)CCN(CC4CC4)CC3)cc2)c1 | 7.51
N#Cc1cccc(-c2ccc(C3(CCC(=O)Nc4ccc(F)c(Cl)c4)CCN(CC4CC4)CC3)cc2)c1 | 7.47
COc1ccc(CN2CCC(OCC(=O)Nc3cc(Cl)cc(Cl)c3)(c3ccc(-c4cccc(C#N)c4)cc3)CC2)cc1 | 7.41
CN1CCC(OCC(=O)Nc2cc(Cl)cc(Cl)c2)(c2ccc(-c3cccc(C#N)c3)cc2)CC1 | 8.40
COc1ccccc1CN1CCC(OCC(=O)Nc2cc(Cl)cc(Cl)c2)(c2ccc(-c3cccc(C#N)c3)cc2)CC1 | 7.82
CS(=O)(=O)c1ccc(CN2CCC(OCC(=O)Nc3cc(Cl)cc(Cl)c3)(c3ccc(-c4cccc(C#N)c4)cc3)CC2)cc1 | 7.12
N#Cc1cccc(-c2ccc(C3(OCC(=O)Nc4cc(Cl)cc(Cl)c4)CCN(Cc4cccc(O)c4)CC3)cc2)c1 | 7.72
N#Cc1cccc(-c2ccc(C3(CCC(=O)Nc4cc(F)cc(F)c4)CCN(C4CCCC4)CC3)cc2)c1 | 7.44
O=C(CNC1(c2ccc(-c3cccc(-c4ncc[nH]4)c3)cc2)CCN(C2CCCC2)CC1)Nc1ccc(F)c(Cl)c1 | 8.08
